These measurements were taken from the METLIN SMRT retention time set (Domingo-Almenara et al. 2019).

Listing: RP-LC retention time of selected compounds
assay: gradient 5% acetonitrile 3 min, to 50% in 2 min, to 85% in 15 min, held 3 min, 100 µL/min; conditions: column: Zorbax Extend-C18 2.1 x 50 mm; eluents: water / acetonitrile, 0.1% formic acid

{"columns": ["compound", "RP-LC retention time (s)"],
 "data": [
  ["CC(=O)N1CCc2cc(N3CC(C(=O)Nc4cc(C)ccc4C)CC3=O)ccc21 (centres undefined)", 717],
  ["CCc1nc(CN2C(=O)COc3cc(S(=O)(=O)N4CCN(c5ncccn5)CC4)c(C)cc32)no1", 871],
  ["COCCCNC(=O)c1cc2c(n(-c3ccc(C(C)C)cc3)c1=O)CCCC2=O", 882],
  ["COc1cccc(-c2nnc(Cc3nc(-c4cccc(OC)c4OC)no3)o2)c1", 923],
  ["COc1ccc(-c2nnc(COc3cccc(NC(=O)Cc4cccs4)c3)o2)cc1", 906],
  ["c1ccc(-c2nc(CSc3ccc(-n4ccnc4)nn3)cs2)cc1", 636],
  ["Cc1nn(C)c(C)c1CCN(C)c1nc(C2CC2)nc2c1CCC2", 604],
  ["CC(C)C1c2nccn2CCCN1C(=O)c1ccc2c(c1)OCO2 (centres undefined)", 603],
  ["O=C(Nc1ccc(N2CCN(c3ccccc3)C2=O)nc1)c1ccc(F)c(F)c1", 989]
]}

----------
Reported RP-LC retention time values follow for various compounds
test: gradient 5% acetonitrile 3 min, to 50% in 2 min, to 85% in 15 min, held 3 min, 100 µL/min; settings: column: Zorbax Extend-C18 2.1 x 50 mm; eluents: water / acetonitrile, 0.1% formic acid
reported_endpoint: RP-LC retention time (s)

{"columns": ["compound", "units_of_measure", "assay_value"],
 "data": [
  ["O=C(c1csc(S(=O)(=O)N2CCC(C(=O)N3CCOCC3)CC2)c1)N1CCOCC1", "s", 620],
  ["CCn1cnc(S(=O)(=O)N2CCCC(C(=O)NCCCc3ccccc3)C2)c1 (centres undefined)", "s", 769],
  ["COc1cc(CN2CCc3nc(N4CCN(c5ccccn5)CC4)ncc3C2)cc(OC)c1OC", "s", 567],
  ["COC(=O)c1ncn2c1C(=O)N(Cc1ccccc1F)C(C)(C(=O)NC1CCCC1)C2 (centres undefined)", "s", 737],
  ["Cc1ccc(-c2ncc(C(=O)NCc3ccccc3C)c(-c3ccncc3)n2)cc1", "s", 909],
  ["O=C(c1ccc(F)c(F)c1)N1CCc2nc(-c3ccccc3)ncc2C1", "s", 951],
  ["O=C(Cc1cccs1)NC1CCN(c2cc(N3CCCC3)cnn2)C1 (centres undefined)", "s", 608],
  ["CC1=C(CO)C(=O)O[C@@H]([C@@H](C)[C@H]2CCC3[C@@H]4C[C@H]5O[C@]56[C@@H](O)C=CC(=O)[C@]6(C)C4CC[C@@]32C)C1 (some centres undefined)", "s", 759],
  ["COc1cc(Cl)ccc1C(=O)N1CCCC1c1nc(-c2ccccc2)no1 (centres undefined)", "s", 1070],
  ["O=C(CC1CCN(C(=O)c2ccc3oc(C4CC4)nc3c2)CC1)NCc1ccc2c(c1)OCO2", "s", 733],
  ["CCOc1ccc(Nc2c(C(=O)N3CCSCC3)cnc3nc(C)ccc23)cc1", "s", 642],
  ["Cc1ccc(C(=O)N2CCN(c3nc(CN4CCOCC4)cs3)CC2)cc1", "s", 651],
  ["COc1ccc(NC(=O)c2cc(C(C)(C)C)n3nccc3n2)c(C)c1", "s", 1240],
  ["CCCN1C(=O)COc2ccc(-c3csc(NC(=O)c4ccc(OC)c(OC)c4)n3)cc21", "s", 971],
  ["COc1ccc(Br)c(C(=O)Nc2ccc3c(c2)N(C(=O)C2CCCC2)CC3)c1", "s", 950],
  ["CCc1nnc2ccc(NC(=O)Nc3ccc(C)cc3)cn12", "s", 710],
  ["CCCNC(=O)Nc1ccc(C)cc1C", "s", 827],
  ["COc1ccc(Cl)c2c(=O)c3c([nH]c12)CCN(CC(=O)Nc1cc(F)ccc1F)C3", "s", 625],
  ["Cc1cccc(S(=O)(=O)N2CCC(c3cc(N)on3)CC2)c1", "s", 615]
]}
